// data source = patent US20200292534A1

Target: T1, NLpoly11S
T1 chain: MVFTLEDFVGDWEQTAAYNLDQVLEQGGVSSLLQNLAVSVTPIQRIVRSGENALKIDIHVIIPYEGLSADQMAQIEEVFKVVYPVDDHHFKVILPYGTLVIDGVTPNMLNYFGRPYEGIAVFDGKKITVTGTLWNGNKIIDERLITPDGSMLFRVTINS
Test: luminescence complementation titration, one-site specific binding fit
Entries and their pKd
Keep in mind that pKd stands for -log10 of concentration in molar terms.

{"binder": "VTGYRLFKEEL (modifications not checked) [array2.36]", "experimental-readout": "pKd", "meas-value": 5.11}
{"binder": "VEGYRLFQKEL (modifications not checked) [array2.93]", "experimental-readout": "pKd", "meas-value": 5.77}
{"binder": "VEGYRLFKKEL (modifications not checked) [array2.84]", "experimental-readout": "pKd", "meas-value": 5.85}
{"binder": "VTGYRLFQQIS (modifications not checked) [array2.13]", "experimental-readout": "pKd", "meas-value": 6.06}
{"binder": "VEGYRLFEKIL (modifications not checked) [array2.100]", "experimental-readout": "pKd", "meas-value": 4.98}
{"binder": "VTGYRLFQKEL (modifications not checked) [array2.39]", "experimental-readout": "pKd", "meas-value": 5.61}
{"binder": "VTGYRLFEEEL (modifications not checked) [array2.54]", "experimental-readout": "pKd", "meas-value": 4.17}

Below: the item to evaluate.
What does the data say about its pKd? Entry: VTGYRLFEQES (modifications not checked) [array2.24]
5.11
